assay: AUC (0 to t) in Sprague-Dawley rat plasma at 2 mg/kg, po administered as single dose by LC-MS/MS analysis; format: ADME, organism-based
observedProperty: AUC(0-t)

Task: Report measured AUC(0-t); entry is "O=C(N[C@H]1CC[C@H](CCN2CCN(c3nsc4ccccc34)CC2)CC1)c1ccco1"
Output: 55 ng·h/mL

====

molecular target: Muscarinic acetylcholine receptor M1 (Homo sapiens, UniProt P11229); experiment: Displacement of [3H]pirenzepine from recombinant human M1 receptor expressed in CHO cell membranes at 1 uM after 60 mins by scintillation counting method relative to control; conditions: CHO cell membranes expressing recombinant human M1 receptor, probe [3H]pirenzepine
Sequence (P11229 whole entry): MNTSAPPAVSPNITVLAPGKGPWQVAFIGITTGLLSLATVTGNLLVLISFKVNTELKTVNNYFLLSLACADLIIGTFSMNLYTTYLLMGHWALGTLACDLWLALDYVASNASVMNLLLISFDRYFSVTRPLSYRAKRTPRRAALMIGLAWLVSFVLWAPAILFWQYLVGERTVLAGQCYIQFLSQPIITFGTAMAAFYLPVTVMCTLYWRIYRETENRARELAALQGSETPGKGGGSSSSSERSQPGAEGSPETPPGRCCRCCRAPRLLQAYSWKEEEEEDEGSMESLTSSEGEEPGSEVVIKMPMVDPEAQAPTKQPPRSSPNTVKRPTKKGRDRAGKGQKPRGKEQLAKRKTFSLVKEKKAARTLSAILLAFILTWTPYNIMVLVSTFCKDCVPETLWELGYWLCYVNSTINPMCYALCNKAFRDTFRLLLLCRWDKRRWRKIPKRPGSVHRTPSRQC
observedProperty: inhibition at 1 h, 1 µM (%)
Numbers only, in %.

Task: Return inhibition at 1 h, 1 µM (reported value) for this compound: "O=C(N[C@H]1CC[C@H](CCN2CCN(c3nsc4ccccc34)CC2)CC1)c1ccco1"
Output: 50.6

====

test: AUC (0 to t) in Sprague-Dawley rat brain at 0.5 mg/kg, iv administered as single dose by LC-MS/MS analysis; assay type: ADME, organism-based
observedProperty: AUC(0-t) (ng·h/mL)
One number for each entry, in ng·h/mL.

Task: Identify measured AUC(0-t) corresponding to "O=C(N[C@H]1CC[C@H](CCN2CCN(c3nsc4ccccc34)CC2)CC1)c1ccco1"
Output: 1070

====

assay: Oral bioavailability in Sprague-Dawley rat plasma at 2 mg/kg administered as single dose by LC-MS/MS analysis; type: ADME, organism-based
observedProperty: bioavailability (%)
Answers are plain numbers, in %.

Task: Fill in bioavailability for record "O=C(N[C@H]1CC[C@H](CCN2CCN(c3nsc4ccccc34)CC2)CC1)c1ccco1"
Output: 13

====

biological target: D(2) dopamine receptor (Homo sapiens); test: Displacement of [3H]spiperone from recombinant human D2L receptor expressed in CHO cell membranes after 60 mins by scintillation counting method
Sequence (P14416 whole entry): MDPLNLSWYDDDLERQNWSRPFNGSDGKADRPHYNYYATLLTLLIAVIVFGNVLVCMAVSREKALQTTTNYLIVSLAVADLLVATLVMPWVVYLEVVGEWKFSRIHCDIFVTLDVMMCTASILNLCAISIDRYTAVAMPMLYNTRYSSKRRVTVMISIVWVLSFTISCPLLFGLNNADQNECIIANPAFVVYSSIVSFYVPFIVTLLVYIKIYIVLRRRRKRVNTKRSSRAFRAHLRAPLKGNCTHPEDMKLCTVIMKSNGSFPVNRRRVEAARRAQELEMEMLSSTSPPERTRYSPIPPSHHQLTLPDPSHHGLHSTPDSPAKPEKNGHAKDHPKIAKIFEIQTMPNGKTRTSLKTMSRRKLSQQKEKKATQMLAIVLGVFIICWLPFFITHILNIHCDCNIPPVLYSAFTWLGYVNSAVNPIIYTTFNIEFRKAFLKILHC
pKi: −log10 of the molar value.
Please use Y whenever pKi is not below 9, and N whenever it is.

Task: Does the compound "COCC(=O)N[C@H]1CC[C@H](CCN2CCN(c3nsc4ccccc34)CC2)CC1" have recorded pKi that is 9 or more?
Output: N

Task: Would you say "O=S(=O)(N[C@H]1CC[C@H](CCN2CCN(c3nsc4ccccc34)CC2)CC1)c1cccnc1" shows pKi at minimum 9?
Output: Y

Task: Could you tell me if the measured pKi of "CN([C@H]1CC[C@H](CCN2CCN(c3nsc4ccccc34)CC2)CC1)S(=O)(=O)c1cccs1" reaches 9 or more?
Output: Y

Task: Hello, I need to know if "CCOC(=O)N1CCC(CCN2CCN(c3nsc4ccccc34)CC2)CC1" has measured pKi not below 9. Thanks!
Output: N

Task: Test whether the compound "CCC(=O)N[C@H]1CC[C@H](CCN2CCN(c3nsc4ccccc34)CC2)CC1" records pKi of 9 or higher.
Output: N

Task: Does the reported pKi for "O=C(N[C@H]1CC[C@@H](CCN2CCN(c3nsc4ccccc34)CC2)CC1)c1ccco1" fall at or above the 9 mark?
Output: N

Task: Given the entry "CCN(C)C(=O)N[C@H]1CC[C@H](CCN2CCN(c3nsc4ccccc34)CC2)CC1" , answer whether its pKi meets or surpasses 9.
Output: Y

====

molecular target: 5-hydroxytryptamine receptor 2A (Homo sapiens); test: Displacement of [3H]ketanserin from recombinant human 5-HT2A receptor expressed in HEK293 cell membranes after 60 mins by scintillation counting method
pKi: −log10 of the molar value.
Param threshold (9) applies to pKi; output YES when value >= threshold, NO when value < threshold.

Worked examples follow.
molSmiles | studyTarget | labelClass
O=C(N[C@H]1CC[C@H](CCN2CCN(c3nsc4ccccc34)CC2)CC1)C1CCCCC1 | 5-hydroxytryptamine receptor 2A (Homo sapiens) | YES
Nc1ccc2c(N3CCN(CC[C@H]4CC[C@H](NC(=O)c5ccco5)CC4)CC3)nsc2c1 | 5-hydroxytryptamine receptor 2A (Homo sapiens) | NO
O=C(c1ccco1)N1CCC(CCN2CCN(c3nsc4ccccc34)CC2)CC1 | 5-hydroxytryptamine receptor 2A (Homo sapiens) | NO
O=C(N[C@H]1CC[C@H](CCN2CCN(c3nsc4ccccc34)CC2)CC1)c1ccccc1 | 5-hydroxytryptamine receptor 2A (Homo sapiens) | YES
CCOC(=O)N[C@H]1CC[C@@H](CCN2CCN(c3nsc4ccccc34)CC2)CC1 | 5-hydroxytryptamine receptor 2A (Homo sapiens) | YES
O=C(N[C@H]1CC[C@H](CCN2CCN(c3nsc4ccccc34)CC2)CC1)c1cccnc1 | 5-hydroxytryptamine receptor 2A (Homo sapiens) | YES
O=C(N[C@H]1CC[C@H](CCN2CCN(c3nsc4ccccc34)CC2)CC1)N1CCOCC1 | 5-hydroxytryptamine receptor 2A (Homo sapiens) | NO

Here's the next entry for you.
Task: Form field: pKi at least 9? Entry: "CC(=O)N[C@H]1CC[C@H](CCN2CCN(c3nsc4ccccc34)CC2)CC1"
Output: NO
